Target: Human immunodeficiency virus type 1 protease (Human immunodeficiency virus 1)
Assay: Inhibitory activity against HIV protease in peptide cleavage assay
pIC50: −log10 of the molar value.
Response key: yes (1) means pIC50 >= 9; no (0) means pIC50 < 9.

CCC(C)[C@H](NC(=O)[C@H](Cc1ccccc1)C[C@H](O)[C@H](Cc1ccccc1)NC(=O)OC(C)(C)C)C(=O)NCC(O)CO (stereo partly drawn) : yes (1)
CC(C)C[C@H](NC(=O)[C@H](Cc1ccccc1)C[C@H](O)[C@H](Cc1ccccc1)NC(=O)OC(C)(C)C)C(=O)NCCc1ccccc1 : no (0)
CC(C)[C@H](NC(=O)[C@H](Cc1ccccc1)C[C@H](O)[C@H](Cc1ccccc1)NC(=O)OC(C)(C)C)C(=O)NCCN : yes (1)
CC[C@H](C)[C@H](NC(=O)[C@H](Cc1ccccc1)C[C@H](O)[C@H](Cc1ccccc1)NC(=O)OC(C)(C)C)C(=O)NCc1nc2ccccc2[nH]1 : yes (1)
CCC(C)[C@H](NC(=O)[C@H](Cc1ccccc1)C[C@H](O)[C@H](Cc1ccccc1)NC(=O)OC(C)(C)C)C(=O)NCCO (stereo partly drawn) : yes (1)

Prompt line: # bool: pIC50 of "CC(C)[C@H](NC(=O)[C@H](Cc1ccccc1)C[C@H](O)[C@H](Cc1ccccc1)NC(=O)OC(C)(C)C)C(=O)NCc1nc2ccccc2[nH]1" >= 9
Response line: yes (1)
